Values were extracted from patent US8450461B2.

Field: Cross-reactivity of competitive immunoassay. Provide a value for each of the molecules that follow.
test system: polyclonal antibodies to risperidone, bleed G1M1; assay: Indirect competitive microtiter plate immunoassay (ELISA), cross-reactivity, polyclonal anti-serum bleed G1M1; assay type: binding, mouse; conditions: polyclonal antibodies (Example 6a), relative to risperidone = 100%

Task: Determine reported Cross-reactivity of competitive immunoassay for `Fc1ccc2c(C3CCNCC3)noc2c1` ; test system: polyclonal antibodies to risperidone, bleed G1M1.
Result: 0.02%

Task: GET Cross-reactivity of competitive immunoassay | system: polyclonal antibodies to risperidone, bleed G1M1 | item: `Cc1nc2n(c(=O)c1CCN1CCC(c3noc4cc(F)ccc34)CC1)CCCC2`
Result: 100%

Task: System polyclonal antibodies to risperidone, bleed G1M1. Read-out Cross-reactivity of competitive immunoassay. Item Cc1nc2n(c(=O)c1CCN1CCC(c3noc4cc(F)ccc34)CC1)CC(O)CC2 (stereo not shown) [7-hydroxy-risperidone] . Report value.
Result: 50%

Task: Give Cross-reactivity of competitive immunoassay for this entry on polyclonal antibodies to risperidone, bleed G1M1: Cc1nc2n(c(=O)c1CCN1CCC(c3noc4cc(F)ccc34)CC1)CCCC2O (stereo not shown)
Result: 81%
